- STUDY_SYSTEM: human PTH1 receptor (Homo sapiens, UniProt Q03431)
- TEST_DETAILS: In vitro cAMP signal activity in HKRK-B7 cells (LLC-PK1 cells overexpressing the human PTH1 receptor)
- Assay type: cell-based
- MEASUREMENT_CONTEXT: HKRK-B7 cells; compound at 1×10^−3 M; cAMP produced as percentage of that produced by hPTH(1-34) at 100 nM
Response key: yes means cAMP production activity (%) >= 80%; no means cAMP production activity (%) < 80%.

MOLECULE: O=C1NC(C2CCCCC2)=NC12CCN(S(=O)(=O)CCc1cccc3c1ccn3C[C@H](O)[C@@H](O)CO)CC2 [Compound 1392]
CATEGORY_LABEL: yes
--
MOLECULE: Cc1onc(-c2ccccc2)c1S(=O)(=O)N1CCC2(CC1)N=C(C1CCCCC1)NC2=O [Compound 52]
CATEGORY_LABEL: no
--
MOLECULE: CCCCCC[C@H]1CCCC[C@@H]1C1=NC2(CCN(S(=O)(=O)CCc3c(C)cc(N(C)C(N)=O)cc3C)CC2)C(=O)N1 [Compound 1057]
CATEGORY_LABEL: yes
--
MOLECULE: Cc1cc(C(=O)N2CCC(O)CC2)cc(C)c1CCS(=O)(=O)N1CCC2(CC1)N=C(c1ccc(F)c(OC(F)(F)F)c1)NC2=O [Compound 1334]
CATEGORY_LABEL: yes
--
MOLECULE: CC(=O)N(C)Cc1cc(C)c(CCS(=O)(=O)N2CCC3(CC2)N=C(C2CCC(CCC(F)(F)F)CC2)NC3=O)c(C)c1 (stereo not shown) [Compound 784]
CATEGORY_LABEL: yes
--
MOLECULE: Cc1cc(N(C)C(N)=O)cc(C)c1CCS(=O)(=O)N1CCC2(CC1)N=C([C@@H]1C[C@H](C)C[C@H](C)C1)NC2=O [Compound 1040]
CATEGORY_LABEL: yes

Now turn to the next molecule.
input: Please tell me: is the molecule O=C(/C=C/c1ccccc1)N1CCCC(C2=NC3(CCN(S(=O)(=O)CCc4cccc5ccccc45)CC3)C(=O)N2)C1 (stereo not shown) [Compound 441] at or over 80% in terms of cAMP production activity (%)?
output: no

---

- STUDY_SYSTEM: human PTH1 receptor (Homo sapiens)
- TEST_DETAILS: In vitro cAMP signal activity in HKRK-B7 cells (LLC-PK1 cells overexpressing the human PTH1 receptor)
- Assay type: cell-based
- MEASUREMENT_CONTEXT: HKRK-B7 cells; compound at 1×10^−3 M; cAMP produced as percentage of that produced by hPTH(1-34) at 100 nM
cAMP production activity (%) values by entry
Quick note: give the figure in %, leave out the unit.

Solved entries:
COMPOUND: O=C(CO)N1CCCC(C2=NC3(CCN(S(=O)(=O)c4cccc(Cl)c4)CC3)C(=O)N2)C1 (stereo not drawn)
UNIT_ABBREVIATION: %
cAMP production activity (%): 2.5
--
COMPOUND: Cc1cc(C(=O)N2CCN(C(=O)N(C)C)CC2)cc(C)c1/C=C/S(=O)(=O)N1CCC2(CC1)N=C(c1cccc(OC(F)(F)F)c1)NC2=O
UNIT_ABBREVIATION: %
cAMP production activity (%): 88

Next:
input: Would you kindly share the measured cAMP production activity (%) for Cc1cc(OC[C@H](O)CO)cc(C)c1/C=C/S(=O)(=O)N1CCC2(CC1)N=C(c1cccc(C(F)(F)F)c1F)NC2=O ?
output: 80

---

- STUDY_SYSTEM: human PTH1 receptor (Homo sapiens, UniProt Q03431)
- TEST_DETAILS: In vitro cAMP signal activity in HKRK-B7 cells (LLC-PK1 cells overexpressing the human PTH1 receptor)
- Assay type: cell-based
- MEASUREMENT_CONTEXT: HKRK-B7 cells; compound at 1×10^−3 M; cAMP produced as percentage of that produced by hPTH(1-34) at 100 nM
EXPERIMENTAL_ENDPOINT: cAMP production activity (%)
Quick note: give the figure in %, leave out the unit.

Solved entries:
COMPOUND: O=C1NC(CC2CCCCC2)=NC12CCN(S(=O)(=O)c1cccc(Cl)c1)CC2
cAMP production activity (%): 31
//
COMPOUND: Cc1cc2ccc1CCS(=O)(=O)N1CCC3(CC1)N=C(NC3=O)c1cc(cc(C(F)(F)F)c1)OCCC/C=C\NC(=O)CN(C)C2=O
cAMP production activity (%): 17
//
COMPOUND: O=C1NC(C2CCCCC2)=NC12CCCN(S(=O)(=O)c1cccc(Cl)c1)CC2 (stereo not shown)
cAMP production activity (%): 31

Next:
input: Would you kindly share the measured cAMP production activity (%) for O=C1NC(c2cccc(OC(F)(F)F)c2)=NC12CCN(S(=O)(=O)CCc1ccccc1C(F)(F)F)CC2 ?
output: 47

---

- STUDY_SYSTEM: human PTH1 receptor (Homo sapiens)
- Sequence (Q03431 27-593): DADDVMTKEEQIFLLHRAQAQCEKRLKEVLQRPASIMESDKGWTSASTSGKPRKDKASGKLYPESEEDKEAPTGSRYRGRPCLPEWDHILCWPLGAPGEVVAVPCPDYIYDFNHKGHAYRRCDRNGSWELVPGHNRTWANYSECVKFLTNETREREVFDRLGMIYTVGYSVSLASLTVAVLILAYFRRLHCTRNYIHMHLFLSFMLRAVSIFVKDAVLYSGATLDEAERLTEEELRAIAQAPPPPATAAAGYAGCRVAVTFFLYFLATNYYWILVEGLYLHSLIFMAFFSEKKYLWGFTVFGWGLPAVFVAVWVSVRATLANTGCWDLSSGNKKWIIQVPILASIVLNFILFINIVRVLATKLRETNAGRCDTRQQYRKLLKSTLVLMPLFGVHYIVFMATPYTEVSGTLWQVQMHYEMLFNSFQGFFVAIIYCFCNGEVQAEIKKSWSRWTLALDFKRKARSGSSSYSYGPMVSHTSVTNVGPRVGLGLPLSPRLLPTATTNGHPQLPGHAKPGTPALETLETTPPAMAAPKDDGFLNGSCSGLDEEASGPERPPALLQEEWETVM
- TEST_DETAILS: In vitro cAMP signal activity in HKRK-B7 cells (LLC-PK1 cells overexpressing the human PTH1 receptor)
- Assay type: cell-based
- MEASUREMENT_CONTEXT: HKRK-B7 cells; compound at 1×10^−3 M; cAMP produced as percentage of that produced by hPTH(1-34) at 100 nM
EXPERIMENTAL_ENDPOINT: cAMP production activity (%)
The reply should read as a number followed by its unit.

Solved entries:
COMPOUND: Cc1cc(N(C)C(N)=O)cc(C)c1CCS(=O)(=O)N1CCC2(CC1)N=C([C@H]1CCC[C@@H](CCC(C)C)C1)NC2=O
cAMP production activity (%): 107%

COMPOUND: O=C(c1ccc2[nH]ccc2c1)N1CCCC(C2=NC3(CCN(S(=O)(=O)CCc4cccc5ccccc45)CC3)C(=O)N2)C1 (stereo not drawn)
cAMP production activity (%): 8.8%

Next:
input: Would you kindly share the measured cAMP production activity (%) for Cc1cc(C(=O)N2CC[C@@H](O)C2)cc(C)c1/C=C/S(=O)(=O)N1CCC2(CC1)N=C(c1cccc(OC(F)(F)F)c1)NC2=O ?
output: 83%

---

- STUDY_SYSTEM: human PTH1 receptor (Homo sapiens)
- TEST_DETAILS: In vitro cAMP signal activity in HKRK-B7 cells (LLC-PK1 cells overexpressing the human PTH1 receptor)
- Type: cell-based
- MEASUREMENT_CONTEXT: HKRK-B7 cells; compound at 1×10^−3 M; cAMP produced as percentage of that produced by hPTH(1-34) at 100 nM
EXPERIMENTAL_ENDPOINT: cAMP production activity (%)
Quick note: give the figure in %, leave out the unit.

COMPOUND: COC(=O)CCC(=O)N1CCN(C(=O)c2cc(C)c(/C=C/S(=O)(=O)N3CCC4(CC3)N=C(c3cccc(OC(F)(F)F)c3)NC4=O)c(C)c2)CC1
UNIT_ABBREVIATION: %
cAMP production activity (%): 64

input: Would you kindly share the measured cAMP production activity (%) for O=C(OCc1ccccc1)N1CCCC(C2=NC3(CCN(S(=O)(=O)CCc4cccc5ccccc45)CC3)C(=O)N2)C1 (stereo not drawn) ?
output: 54

input: Would you kindly share the measured cAMP production activity (%) for CCc1cc(N(C)C(N)=O)ccc1CCS(=O)(=O)N1CCC2(CC1)N=C(C1CCC(C)CC1)NC2=O (stereo not drawn) ?
output: 79

---

- STUDY_SYSTEM: human PTH1 receptor (Homo sapiens)
- TEST_DETAILS: In vitro cAMP signal activity in HKRK-B7 cells (LLC-PK1 cells overexpressing the human PTH1 receptor)
- Assay type: cell-based
- MEASUREMENT_CONTEXT: HKRK-B7 cells; compound at 1×10^−3 M; cAMP produced as percentage of that produced by hPTH(1-34) at 100 nM
I'd appreciate it if you marked entries true when cAMP production activity (%) is lower than 70% and false when it is not.

// below: answered molecules
MOLECULE: Cc1cc(C(=O)N(C)C)ccc1CCS(=O)(=O)N1CCC2(CC1)N=C(c1ccc(OC(F)(F)C(F)F)cc1)NC2=O
CATEGORY_LABEL: true

MOLECULE: Cc1cc(C(=O)N2CCC(C)(O)CC2)cc(C)c1CCS(=O)(=O)N1CCC2(CC1)N=C(c1ccc(F)c(OC(F)(F)F)c1)NC2=O
CATEGORY_LABEL: false

MOLECULE: O=C1NC(C2CCCCC2)=NC12CCN(S(=O)(=O)/C=C/c1cccc3c1ccn3CCN1CCOCC1)CC2
CATEGORY_LABEL: true

MOLECULE: O=C1NC([C@@H]2C[C@H]3CC[C@@H]2C3)=NC12CCN(S(=O)(=O)c1cccc(Cl)c1)CC2
CATEGORY_LABEL: true

MOLECULE: O=C1NC(c2cccc(OC(F)(F)F)c2)=NC12CCN(S(=O)(=O)/C=C/c1cc(F)c(OCCC(O)CO)c(F)c1)CC2 (centres unmarked)
CATEGORY_LABEL: true

input: For Cc1cc(N2C(=O)CC[C@@H]2CO)ccc1CCS(=O)(=O)N1CCC2(CC1)N=C(c1cccc(C(F)(F)F)c1)NC2=O , is the recorded cAMP production activity (%) below the cut-off of 70%?
output: false

Where do these numbers come from? They come from patent US9169254B2.
